Here the recorded kon is given for each entry.
study-target: T1, native human ApoC3 (human, UniProt P02656 21-99)
T1 construct: also called nhuApoC3; native huApoC3
T1 sequence (P02656 21-99): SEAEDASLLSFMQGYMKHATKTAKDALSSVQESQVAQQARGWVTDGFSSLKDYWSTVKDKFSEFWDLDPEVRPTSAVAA
method: SPR, ApoC3 over captured IgG1, pH 7.4

{"binder": "mAb18 (antibody, IgG1, V domains shown, Produced as full length IgG1 (kappa) in ExpiCHO-S cells; also called humanized anti-ApoC3 antibody mAb18) VH: QLVESGGGLVQPGGSLRLSCAASGFTFSTYSMRWVRQAPGKGLEWVSSIHTEAGGTAYRDSVKGRFTISRDNAKNTLYLQMNNLRAEDTAVYYCVIAGYSDWGQGTLVTVSS VL: DIVMTQSPLSLPVTPGEPASISCKTSQGLVHSGGKTYFYWFLQKPGQSPQQLIYQVSNRASGVPDRFTGSGSGTDFTLKISRVEAEDAGVYYCAHGTYYPHTFGQGTRLEIK", "result": "106000 M⁻¹ s⁻¹"}

I'd like to know its kon. The binder in question is mAb2 (antibody, IgG1, V domains shown, Produced as full length IgG1 (kappa) in ExpiCHO-S cells; also called humanized anti-ApoC3 antibody mAb2) VH: QLVESGGGLVQPGGSLRLSCAASGFTFGTYSMRWVRQVPGKGLEWVSSIHTEGGGTAYRDSVKGRFTISRDNAKNTLYLQMNSLRAEDTAIYYCVIAGYSDWGQGTLVTVSS VL: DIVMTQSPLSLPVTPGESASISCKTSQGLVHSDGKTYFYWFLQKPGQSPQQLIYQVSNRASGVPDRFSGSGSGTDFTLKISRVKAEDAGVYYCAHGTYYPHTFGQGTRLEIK
44500 M⁻¹ s⁻¹

I'd like to know its kon. The binder in question is 5E5VH5_VL8 human IgG1 (antibody, V domains shown, Tested as human IgG1; the tested lot is not tied to them in words) VH: QLQLVESGGGLVQPGGSLRLSCAASGFTFGTYSMRWVRQVPRKALEWVSSIHTDGGGTAYRDSVKGRFTISRDNAKNTLYLQMNNLKPEDTAIYYCVIAGYSDWGQGTQVTVSS VL: ATMLTQSPGSLSVVPGESASISCKTSQGLVHSDGKTYFYWFLQKPGQSPQQLIYQVSNRASGVPDRFTGSGSGTDFTLKISGVKAEDAGVYYCAHGTYYPHTFGSGTRLEIK
42700 M⁻¹ s⁻¹
